test system: Plasmodium falciparum; experiment: Antiplasmodial activity against chloroquine-sensitive Plasmodium falciparum NF54 erythrocytic stages incubated for 48 hrs by [3H]-hypoxanthine incorporation assay; format: functional, organism-based
pIC50: −log10 of the molar value.
Rule: pIC50 of 6 or more gives yes; anything lower gives no.

# example entries with known answers
compound_structure=O=C(NCC(F)(F)F)c1cc(-c2ccc(CN3CCOCC3)cc2)nc2ccc(F)cc12 group_label=no
compound_structure=O=C(CCN1CCCC1)Nc1cc(-c2ccc(CN3CCOCC3)cc2)nc2ccc(F)cc12 group_label=yes
compound_structure=CC(C)(C)C(=O)N1CCN(CC(=O)Nc2cc(-c3ccc(CN4CCOCC4)cc3)nc3ccc(F)cc23)CC1 group_label=no

Determine whether this compound has pIC50 no lower than 6: Fc1ccc2nc(-c3ccc(CN4CCOCC4)cc3)cc(CNCCN3CCCC3)c2c1
yes

Determine whether this compound has pIC50 no lower than 6: O=C(c1cc(-c2ccc(CN3CCOCC3)cc2)nc2ccc(F)cc12)N1CCC(O)CC1
no

Determine whether this compound has pIC50 no lower than 6: CC(C)(C)OC(=O)N1CCN(CCC(=O)Nc2cc(-c3ccc(CN4CCOCC4)cc3)nc3ccc(F)cc23)CC1
yes

Determine whether this compound has pIC50 no lower than 6: CC(C)(C)C(=O)N1CCN(CCC(=O)Nc2cc(-c3ccc(CN4CCOCC4)cc3)nc3ccc(F)cc23)CC1
yes

Determine whether this compound has pIC50 no lower than 6: CCOC(=O)N1CCC(NC(=O)c2cc(-c3ccc(CN4CCOCC4)cc3)nc3ccc(F)cc23)CC1
no

---

tested on: Plasmodium berghei; experiment: Antiplasmodial activity against GFP-transfected Plasmodium berghei ANKA infected in NMRI mouse assessed as reduction in parasitaemia at 50 mg/kg/day, ip for consecutive 4 days (4, 24, 48 and 72 hrs post infection) and measured up to 20 days after infection relative to untreated control; type: functional; set-up: scale not given: the % may be the effect or the level left
Record form. Attribute: Activity. Fill in for each entry.
Answers are plain numbers, in %.

A selection of reference data follows.
molecule=Fc1ccc2nc(-c3ccc(CN4CCOCC4)cc3)cc(CNCCN3CCCC3)c2c1 property_name=Activity quantitative_readout=99.4
molecule=CN1CCN(Cc2ccc(-c3cc(NC(=O)CCN4CCCC4)c4cc(F)ccc4n3)cc2)CC1 property_name=Activity quantitative_readout=99.6
molecule=O=C(CCN1CCCC1)Nc1cc(-c2ccc(CN3CCOCC3)cc2)nc2ccc(F)cc12 property_name=Activity quantitative_readout=33.9
molecule="CCN(CC)CCCC(C)Nc1ccnc2cc(Cl)ccc12 (stereo not given)" property_name=Activity quantitative_readout=99.6

Now let's try a different one.
# return Activity for CC(C)(C)C(=O)N1CCN(CCNC(=O)c2cc(-c3ccc(CN4CCOCC4)cc3)nc3ccc(F)cc23)CC1 , test system: Plasmodium berghei
25.2

---

test system: Plasmodium falciparum; assay: Antiplasmodial activity against chloroquine-sensitive Plasmodium falciparum NF54 erythrocytic stages incubated for 48 hrs by [3H]-hypoxanthine incorporation assay; format: functional, organism-based
Record form. Attribute: pIC50. Fill in for each entry.
Numbers only, as −log10 of the molar value.

compound_structure=O=C(NCCc1ccccn1)c1cc(-c2ccc(CN3CCOCC3)cc2)nc2ccc(F)cc12 quantitative_readout=4.83

Provide reported pIC50 for each item, in the same order as listed.
1. Nc1cc(-c2ccc(CN3CCOCC3)cc2)nc2ccc(F)cc12
2. CC(C)(C)OC(=O)N1CCN(CC(=O)Nc2cc(-c3ccc(CN4CCOCC4)cc3)nc3ccc(F)cc23)CC1
3. O=C(NCc1ccccc1)c1cc(-c2ccc(CN3CCOCC3)cc2)nc2ccc(F)cc12
4. CC(C)(C)N1CCN(CCNC(=O)c2cc(-c3ccc(CN4CCOCC4)cc3)nc3ccc(F)cc23)CC1

1: 6.64; 2: 5.12; 3: 5.22; 4: 5.51
